experiment: gradient 5% acetonitrile 3 min, to 50% in 2 min, to 85% in 15 min, held 3 min, 100 µL/min; settings: column: Zorbax Extend-C18 2.1 x 50 mm; eluents: water / acetonitrile, 0.1% formic acid
PARAMETER MEASURED: RP-LC retention time (s)

P. O=S(=O)(c1cccc(-c2nnc(-c3ccc(Cl)cc3)o2)c1)N1CCCCC1
Q. O=C(N[C@H](Cc1ccccc1)C(=O)NCc1cscn1)c1cccc(Cl)c1
Of P and Q , which one carries the higher reported RP-LC retention time? # reply format: chosen label
P

a. Cn1nc(-c2nnc(-c3ccccc3F)o2)c2c1CCN(S(=O)(=O)c1ccc(Cl)cc1)C2
b. COc1nn(C)cc1C(=O)N1CCC(C(=O)NCc2cccs2)CC1
API: POST /compare with a and b ; response names the item with higher RP-LC retention time. Please respond with the label that marks your chosen entry.
a
